# measurementNotes: Abiotic loss in negative controls of the hepatocyte clearance assay (cell-free media, metabolically inactivated hepatocytes)
# Assay type: in vitro ADME
# measurementConditions: both sexes, human; heat treated hepatocytes control, 0 vs 240 min; read-out: HT BkgdCl, Half Life
# Experimental: The hepatic metabolic stability assay measures the loss of a parent compound over time in a substrate-depletion approach. […] At each time point, relevant plates were crashed with an equal volume of ice-cold acetonitrile, centrifuged, and supernatant transferred to a new plate prior to storage at <−70 °C until quantitative analysis. […]
reportedMetric: half-life at 1 μM (h)
The reply should be a number in h, with the unit left off.

Which value of half-life at 1 μM has been reported for Cc1ccc(S(=O)(=O)OCC(F)(F)C(F)(F)C(F)(F)C(F)(F)C(F)(F)C(F)F)cc1 in the records?
2.62

Which value of half-life at 1 μM has been reported for NC(=O)C(F)(F)C(F)(F)C(F)(F)C(F)(F)C(N)=O [Octafluoroadipamide] in the records?
7.63

What half-life at 1 μM value was documented for this molecule, NC(=O)C(F)(F)C(F)(F)C(F)(F)C(F)(F)F [Nonafluoropentanamide] ?
1.58

// query half-life at 1 μM value for entry OCC(F)(F)C(F)(F)C(F)(F)C(F)(F)C(F)(F)C(F)(F)C(F)(F)C(F)(F)CO [1H,1H,10H,10H-Perfluorodecane-1,10-diol]
4.63

====

# Tested on: human plasma
# measurementNotes: Chemical stability in plasma over the UC assay time course (T5hr/T1hr)
# measurementConditions: mean T5hr/T1hr ratio in plasma over all replicates/runs
reportedMetric: Mean Stability
Reply briefly: the number, and no unit.

// map NCC(F)(F)C(F)(F)C(F)(F)C(F)(F)C(F)(F)C(F)(F)C(F)(F)C(F)(F)F [1H,1H-Perfluorononylamine] to recorded Mean Stability (system: human plasma)
0.598

Form: Entry = OCCCCC(F)(F)C(F)(F)C(F)(F)C(F)(F)F [4:4 Fluorotelomer alcohol] | System = human plasma | Mean Stability = ____
0.850

What Mean Stability appears in the records for this molecule with human plasma? OCC(F)(F)C(F)(F)C(F)(F)C(F)(F)C(F)(F)C(F)(F)F [6:1 Fluorotelomer alcohol]
0.907

Form entry - test system: human plasma; read-out: Mean Stability; molecule: NC(=O)C(F)(F)C(F)(F)C(F)(F)F [Heptafluorobutyramide]
0.963

====

# measurementNotes: In vitro-in vivo extrapolation (IVIVE) to Css and administered equivalent dose (AED)
# Set-up: species or system human
# measurementConditions: human steady-state plasma concentration, assuming 1 mg/kg/day dosage
Please provide measured log10 Css for the entries that follow.
log10 Css, nM

Entry OCC(F)(F)C(F)(F)C(F)(F)C(F)(F)C(F)(F)C(F)(F)C(F)(F)C(F)(F)CO [1H,1H,10H,10H-Perfluorodecane-1,10-diol] has what log10 Css?
3.17

Request the reported log10 Css associated with OCC(F)(F)C(F)(F)C(F)(F)C(F)(F)C(F)(F)C(F)(F)CO [1H,1H,8H,8H-Perfluorooctane-1,8-diol]
2.65

Name the reported log10 Css value associated with the compound NC(=O)C(F)(F)C(F)(F)C(F)(F)F [Heptafluorobutyramide]
2.30

May I ask what log10 Css has been recorded for OCC(F)(F)OC(F)(F)C(F)(F)OC(F)(F)CO ?
2.63

Dear colleague, I am looking for the recorded log10 Css of the following compound: OCC(F)(F)C(F)(F)C(F)(F)CO [Hexafluoroamylene glycol]
3.32

Dear colleague, I am looking for the recorded log10 Css of the following compound: Cc1ccc(S(=O)(=O)OCC(F)(F)C(F)(F)C(F)(F)C(F)(F)C(F)(F)C(F)F)cc1
4.00

Quick check: log10 Css of OCCC(F)(F)C(F)(F)C(F)(F)C(F)(F)F [4:2 Fluorotelomer alcohol] ?
2.32

Can you share its log10 Css? I mean this compound: NC(=O)C(F)(F)C(F)(F)F [Pentafluoropropionamide]
3.43
